target: full length AKT E17K (Homo sapiens, UniProt P31749, E17K); construct: host or cells: HEK-293 (ATCC CRL-1573); test: NanoBRET Target Engagement (TE) Assay; assay type: cell-based; settings: competitive displacement of tracer in cells, read-out: AKT1 E17K IC50
Sequence (P31749 whole entry E17K): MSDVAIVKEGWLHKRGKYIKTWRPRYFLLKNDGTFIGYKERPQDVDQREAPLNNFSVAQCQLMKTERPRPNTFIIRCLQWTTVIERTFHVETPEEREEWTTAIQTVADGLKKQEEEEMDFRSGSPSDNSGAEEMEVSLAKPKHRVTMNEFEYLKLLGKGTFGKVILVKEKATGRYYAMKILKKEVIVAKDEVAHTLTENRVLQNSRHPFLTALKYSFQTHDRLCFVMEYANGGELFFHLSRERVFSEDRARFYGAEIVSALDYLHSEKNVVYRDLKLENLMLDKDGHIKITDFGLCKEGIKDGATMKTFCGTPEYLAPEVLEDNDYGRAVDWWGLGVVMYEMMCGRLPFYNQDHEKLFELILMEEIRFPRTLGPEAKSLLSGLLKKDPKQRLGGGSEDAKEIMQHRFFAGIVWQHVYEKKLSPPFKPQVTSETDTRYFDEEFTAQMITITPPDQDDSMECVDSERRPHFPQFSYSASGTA
pIC50: −log10 of the molar value.
readout: pIC50

{"query_smiles": "N#Cc1nccc(NC2CCN(Cc3ccc(-n4c(-c5cccnc5N)nc5ccc(N6CCC6)nc54)cc3)CC2)n1", "result": "> 7.82"}
{"query_smiles": "CC(C)OC(=O)c1ccc2nc(-c3cccnc3N)n(-c3ccc(CN4CCC(Nc5ccnc(C#N)n5)CC4)cc3)c2n1", "result": "> 7.82"}
{"query_smiles": "[2H]C([2H])(F)n1cc(-c2ccc3nc(-c4cccnc4N)n(-c4ccc(CN5CCC(Nc6ccnc(C#N)n6)CC5)cc4)c3n2)ccc1=O", "result": "7.22 to 7.82"}
{"query_smiles": "Cc1ncn(-c2ccc3nc(-c4cccnc4N)n(-c4ccc(CN5CCC(Nc6ccnc(C#N)n6)CC5)cc4)c3n2)n1", "result": "7.22 to 7.82"}
{"query_smiles": "N#Cc1nccc(NC2CCN(Cc3ccc(-n4c(-c5cccnc5N)nc5cc(F)cnc54)cc3)CC2)n1", "result": "> 7.82"}

Ask | Param item = N#Cc1nccc(NC2CCN(Cc3ccc(-n4c(-c5cccnc5N)nc5ccc(-c6ccc(C7CC7)cn6)nc54)cc3)CC2)n1 ; retrieve measured pIC50.
Reply | > 7.82

Ask | Param item = CCc1ccc(-c2ccc3nc(-c4cccnc4N)n(-c4ccc(CN5CCC(Nc6ccnc(C#N)n6)CC5)cc4)c3n2)nc1 ; retrieve measured pIC50.
Reply | > 7.82
